system: PDE1; assay: In vitro HTRF PDE1 inhibition assay; assay type: biochemical; settings: HTRF cGMP assay, 100 nM cyclic GMP, PDE (1A3, 1B or 1C) with calmodulin, 45 minutes at 37° C.; isoform of the tabulated values not stated
This listing pairs compounds with measured IC50.

Check out these entries, answers already filled in.
>>> result("CC1c2nc3c(cnn3C(C)C)c(=O)n2CCN1Cc1ccccc1 (racemic) [Compound I-32]")
"> 10000 nM"
>>> result("Cc1cnc(CN2CCn3c(nn4c(C(C)C)ncc4c3=O)C2)cn1 [Compound I-208]")
"1000 to 10000 nM"
>>> result("O=c1c2cnn(C3CCCC3)c2nc2n1CCN(c1ccc(Cl)cc1)C2 [Compound I-93]")
"< 1000 nM"
>>> result("CC1CN(C)Cc2nc3c(cnn3C3CCCC3)c(=O)n21 (racemic) [Compound I-100]")
"> 10000 nM"
>>> result("COc1cc(CN2CCn3c(nc4c(cnn4C(C)C)c3=O)C2)ccc1F [Compound I-139]")
"> 10000 nM"
>>> result("O=c1c2c(Nc3ccccc3)n[nH]c2nc2n1CCNC2 [Compound I-16]")
"> 10000 nM"
>>> result("CC(C)c1n[nH]c2c(=O)n3c(nc12)C(C)N(C)CC3 (racemic) [Compound I-38]")
"> 10000 nM"
>>> result("CCCn1ncc2c(=O)n3c(nc21)CN(Cc1cccc(Cl)c1)CC3 [Compound I-166]")
"1000 to 10000 nM"

Challenge: Reported IC50, compound O=c1c2nnc(C3CCCC3)n2nc2n1CCN(Cc1ccc(Cl)cc1)C2 [Compound I-132] : ____
Response given: < 1000 nM

Challenge: What about this compound? CCCn1ncc2c(=O)n3c(nc21)CN(c1ccc(Cl)cc1)CC3 [Compound I-167]
Response given: < 1000 nM

Challenge: What about this compound? CC(C)n1ncc2c(=O)n3c(nc21)CN(Cc1cccc(Cl)c1)CC3 [Compound I-70]
Response given: < 1000 nM

Challenge: What about this compound? CC(C)n1ncc2c(=O)n3c(nc21)CN(Cc1ccc(-c2ccccc2)cc1)CC3 [Compound I-66]
Response given: 1000 to 10000 nM

Challenge: What about this compound? CCOc1cc(N2CCn3c(nn4c(C(C)C)ncc4c3=O)C2)ccc1F [Compound I-177]
Response given: < 1000 nM

Challenge: What about this compound? CC(C)n1ncc2c(=O)n3c(nc21)CN(c1ccccc1Cl)CC3 [Compound I-85]
Response given: 1000 to 10000 nM

Challenge: What about this compound? COc1cccc(N2CCn3c(nn4c(C5CCCC5)ncc4c3=O)C2)c1 [Compound I-181]
Response given: < 1000 nM

----------
tested on: PDE1; assay: In vitro HTRF PDE1 inhibition assay; format: biochemical; conditions: HTRF cGMP assay, 100 nM cyclic GMP, PDE (1A3, 1B or 1C) with calmodulin, 45 minutes at 37° C.; isoform of the tabulated values not stated
This listing pairs molecules with measured IC50.

>>> result("CC(C)(C)c1ncc2c(=O)n3c(nn12)CN(c1ccc(Cl)cc1)CC3 [Compound I-250]")
"1000 to 10000 nM"
>>> result("CC(C)c1ncc2c(=O)n3c(nn12)CN(Cc1cncnc1)CC3 [Compound I-192]")
"> 10000 nM"
>>> result("O=c1c2cnc(C3CCOC3)n2nc2n1CCN(Cc1ccccc1)C2 (racemic) [Compound I-231]")
"< 1000 nM"
>>> result("CC1c2nc3c(cnn3-c3ccccc3)c(=O)n2CCN1Cc1ccccc1 (racemic) [Compound I-33]")
"> 10000 nM"
>>> result("CC(C)n1ncc2c(=O)n3c(nc21)CN(Cc1cccnc1)CC3 [Compound I-135]")
"< 1000 nM"

Challenge: Reported IC50, molecule CC(C)n1ncc2c(=O)n3c(nc21)CN(Cc1ccc2c(c1)OCO2)CC3 [Compound I-170] : ____
Response given: 1000 to 10000 nM

Challenge: What about this molecule? CC(C)c1nn(C)c2c(=O)n3c(nc12)C(Cc1ccccc1)NCC3 (racemic) [Compound I-15]
Response given: > 10000 nM

Challenge: What about this molecule? COc1ccccc1CN1CCn2c(nc3c(cnn3C3CCCC3)c2=O)C1 [Compound I-78]
Response given: < 1000 nM

----------
system: PDE1; experiment: In vitro HTRF PDE1 inhibition assay; type: biochemical; conditions: HTRF cGMP assay, 100 nM cyclic GMP, PDE (1A3, 1B or 1C) with calmodulin, 45 minutes at 37° C.; isoform of the tabulated values not stated
pIC50: −log10 of the molar value.
OUTCOME MEASURE: pIC50

Check out these entries, answers already filled in.
>>> result("CC(C)Cn1ncc2c(=O)n3c(nc21)CN(c1ccccc1Cl)CC3")
"5.00 to 6.00"
>>> result("O=c1c2cnn(C3CCOCC3)c2nc2n1CCN(c1ccc(Cl)cc1)C2")
"> 6.00"
>>> result("O=c1c2ncn(C3CCCC3)c2nc2n1CCN(Cc1ccc(Cl)cc1)C2")
"< 5.00"
>>> result("CC1CN(Cc2ccccc2)Cc2nc3c(cnn3C3CCCC3)c(=O)n21 (racemic)")
"5.00 to 6.00"

# context switch: different molecule, same pIC50
Challenge: Reported pIC50, molecule CC1c2nc3c(cnn3C(C)C)c(=O)n2CCN1C (racemic) : ____
Response given: < 5.00

----------
This listing pairs molecules with measured pIC50.
test system: PDE1; test: In vitro HTRF PDE1 inhibition assay; assay type: biochemical; details: HTRF cGMP assay, 100 nM cyclic GMP, PDE (1A3, 1B or 1C) with calmodulin, 45 minutes at 37° C.; isoform of the tabulated values not stated
pIC50: −log10 of the molar value.

Check out these entries, answers already filled in.
>>> result("O=c1c2cnc(C3CCNCC3)n2nc2n1CCN(c1ccc(Cl)cc1)C2")
"5.00 to 6.00"
>>> result("O=c1c2cnc(C3CCC3)n2nc2n1CCN(c1ccc(Cl)cc1)C2")
"> 6.00"
>>> result("CC(C)c1nnc2c(=O)n3c(nn12)CN(Cc1ccncc1)CC3")
"< 5.00"
>>> result("COc1ccc(CN2CCn3c(nc4c(cnn4C4CCOC4)c3=O)C2)cc1 (racemic)")
"< 5.00"
>>> result("COc1ccc(CN2CCn3c(nn4c(C5CCOC5)ncc4c3=O)C2)cc1 (racemic)")
"5.00 to 6.00"
>>> result("COCCn1ncc2c(=O)n3c(nc21)CN(c1ccc(Cl)c(Cl)c1)CC3")
"5.00 to 6.00"
>>> result("CCCn1ncc2c(=O)n3c(nc21)CN(Cc1ccc(OC)cc1)CC3")
"5.00 to 6.00"
>>> result("CC(C)n1ncc2c(=O)n3c(nc21)CN(Cc1ccc(F)cc1)CC3")
"< 5.00"

Challenge: Reported pIC50, molecule CC(C)n1ncc2c(=O)n3c(nc21)CN(Cc1ccccc1)CC3 : ____
Response given: 5.00 to 6.00

Challenge: What about this molecule? COc1ccc(CN2CCn3c(nn4c(C5CCOCC5)ncc4c3=O)C2)cc1
Response given: > 6.00

Challenge: What about this molecule? CC1Cn2c(nc3c(cnn3C(C)C)c2=O)CN1 (racemic)
Response given: < 5.00

Challenge: What about this molecule? CC(C)c1nn(C)c2c(=O)n3c(nc12)C(C)NCC3 (racemic)
Response given: < 5.00

Challenge: What about this molecule? CCC1Cn2c(nc3c(cnn3C(C)C)c2=O)CN1c1ccc(Cl)cc1 (racemic)
Response given: 5.00 to 6.00

----------
tested on: PDE1; assay: In vitro HTRF PDE1 inhibition assay; assay type: biochemical; conditions: HTRF cGMP assay, 100 nM cyclic GMP, PDE (1A3, 1B or 1C) with calmodulin, 45 minutes at 37° C.; isoform of the tabulated values not stated
pIC50: −log10 of the molar value.
This listing pairs compounds with measured pIC50.

Challenge: Reported pIC50, compound O=c1c2cnn(C3CCCC3)c2nc2n1CCN(Cc1cncnc1)C2 : ____
Response given: 5.00 to 6.00

Challenge: What about this compound? CC(C)n1ncc2c(=O)n3c(nc21)CN(c1ccccc1)CC3
Response given: 5.00 to 6.00

Challenge: What about this compound? CN1Cc2nc3c(cnn3C3CCCC3)c(=O)n2C(c2ccccc2)C1 (racemic)
Response given: < 5.00

----------
tested on: PDE1; assay: In vitro HTRF PDE1 inhibition assay; type: biochemical; conditions: HTRF cGMP assay, 100 nM cyclic GMP, PDE (1A3, 1B or 1C) with calmodulin, 45 minutes at 37° C.; isoform of the tabulated values not stated
This listing pairs compounds with measured IC50.

Check out these entries, answers already filled in.
>>> result("COc1ccc(CN2Cc3nc4c(cnn4C4CCCC4)c(=O)n3C(C)C2)cc1 (racemic)")
"1000 to 10000 nM"
>>> result("CCOc1cccc(N2CCn3c(nn4c(C5CCCC5)ncc4c3=O)C2)c1")
"< 1000 nM"

Challenge: Reported IC50, compound O=c1c2cnn(C3CCC3)c2nc2n1CCN(c1ccc(Cl)cc1)C2 : ____
Response given: 1000 to 10000 nM

Challenge: What about this compound? CC(C)n1ncc2c(=O)n3c(nc21)C(Cc1ccccc1)NCC3 (racemic)
Response given: 1000 to 10000 nM

# credit: patent US20160083391A1
